Test system: SNB-75 CNS
Assay: NCI tumour cell line growth inhibition, 48 h
# TGI per entry

{"compound": "O=C(NC1C=CCC2C(=O)N(c3ccccc3)C(=O)C12)OCc1ccccc1 (stereo not given)", "TGI": "> 100 µM"}

Record summary for Clc1ccc2cccc3c2c1C1OC3c2ccccc21 (stereo not given) : reported TGI = > 100 µM

Notebook: Cc1ccc(S(=O)(=O)N2CC2CCCCC=O)cc1 (stereo not given) , TGI read as > 100 µM

// TGI lookup, compound = `O=c1c2cccnc2ncn1CCN1CCCCC1` , result: > 100 µM

The compound listed as `O=[N+]([O-])c1cc([N+](=O)[O-])c(C(F)(F)F)cc1NN=C(c1ccc(O)cc1)c1ccc(O)cc1` shows TGI equal to 16.8 µM

`Cc1nc(-c2nc(C)c(C(=O)NNC(=O)C[n+]3ccccc3)s2)sc1C(=O)NNC(=O)C[n+]1ccccc1` has a reported TGI of 84.3 µM

Looking up Cc1nn(C(=O)Cc2ccccc2)c2c1C(c1ccccc1)SC(N)=N2 (stereo not given) , I see its TGI listed as > 100 µM

Form field TGI, entry `C=C1c2nc3ccccc3n2C=C(c2ccc(OC)cc2)N1c1ccc(OC)cc1` : 30.6 µM

Entry under test: `CC(=O)Nc1cc2ccc(=O)oc2cc1Cl` . Its TGI was > 100 µM

# TGI (compound: COc1ccc(S(=O)(=O)n2c3c(c4ccccc42)[C@@H]2[C@@H](CCCN2C(=O)CS(=O)c2ccc(C)cc2)[C@H](Cl)C3)cc1 (stereo not given in full) ) is > 100 µM

###

# TGI values compiled below
Test system: SK-MEL-5 melanoma
Test: NCI tumour cell line growth inhibition, 48 h
Form entry: value (µM) — number only.

Some solved cases for reference:
{"compound": "COc1cc2c(cc1OC)C(Cl)C(c1ccc(F)cc1)=C2Cl (stereo not drawn)", "measurement": 27.4}
{"compound": "CC(=C(c1ccc(OCCN2CCCCC2)cc1)c1ccc(OCCN2CCCCC2)cc1)c1ccc(Cl)cc1", "measurement": 0.793}

Recorded result, `COc1ccccc1NC(=O)c1cc2cc(Br)ccc2cc1O` , TGI: 3.11

Note to self: TGI recorded for `C(=C/CCCN1O[C@@H](CCCCCCCCc2cccnc2)[C@H]2CCC[C@H]21)/CCCCCCCCCc1cccnc1` was 43.7

###

System: CCRF-CEM leukemia
Experiment: NCI tumour cell line growth inhibition, 48 h
*1 amine or outer side, *2 acyl side, *3 side chain or, on linkers, in order; H or OH if unused. Where a SMILES comes first, the peptide text is derived from it. Bridges are numbered along the chain shown (N, C = ends). Roman numbers before positions name the chains, in order. [ ]: non-standard residue; d: D form. Actinocin(9to1) = Cc1c2oc3c(C)ccc(C(=O)[*:1])c3nc-2c(C(=O)[*:2])c(N)c1=O; NMeV = CN[CH](C(=O)O)C(C)C; Sar = CNCC(=O)O
property measured: TGI (µM)
Please respond with the number in µM and leave the unit unwritten.

{"molecule": "COC(=O)/C=C/c1cc(OC(C)=O)c2c(c1)[C@@H](C(=O)OC)[C@H](c1ccc(OC(C)=O)c(OC(C)=O)c1)O2", "TGI / µM": 34.4}

Sample `O=C1c2cccc3cc([N+](=O)[O-])cc(c23)C(=O)N1Nc1ccc([N+](=O)[O-])cc1[N+](=O)[O-]` ; TGI observed: 14.5

The value of TGI measured for the molecule Cc1c2oc3c(C)ccc(C(=O)NC4C(=O)NC(C(C)C)C(=O)N5CCCC5C(=O)N(C)CC(=O)N(C)C(C(C)C)C(=O)OC4C)c3nc-2c(C(=O)NC2C(=O)NC(C(C)C)C(=O)N3CCCC3C(=O)N(C)CC(=O)N(C)C(C(C)C)C(=O)OC2C)c(N)c1=O (stereo unspecified) (I: TVP[Sar][NMeV] / II: TVP[Sar][NMeV]; ester I:1-I:C, II:1-II:C; linker I:N-II:N via Actinocin(9to1); configuration not given here) turned out to be 0.0033

// recorded TGI for `COc1ccc(C(SCCO)(c2ccccc2)c2ccc(OC)cc2)cc1` : 40.7

###

Listing: TGI of selected molecules
Tested on: HT29 colon
Test: NCI tumour cell line growth inhibition, 48 h
Your answer should be a plain number; it is taken to be in µM.

Examples from the recorded data:
{"molecule": "COc1ccc(CN2C(=O)C(Cl)=C(Nc3cccc(C(F)(F)F)c3)C2=O)cc1", "study target": "HT29 colon", "unit of measure": "µM", "TGI": 19.7}
{"molecule": "CCCCCCCCCCSC(=N)N (tested in a mixture with another compound)", "study target": "HT29 colon", "unit of measure": "µM", "TGI": 4.34}

# TGI (molecule: `O=[N+]([O-])c1ccc2nc(Nc3ccccc3)c(Nc3ccccc3)nc2c1` ) is 1.53

###

Measured TGI of individual entries
System: PC-3 prostate
Assay: NCI tumour cell line growth inhibition, 48 h
*1 amine or outer side, *2 acyl side, *3 side chain or, on linkers, in order; H or OH if unused. Where a SMILES comes first, the peptide text is derived from it. Bridges are numbered along the chain shown (N, C = ends). Roman numbers before positions name the chains, in order. [ ]: non-standard residue; d: D form. Actinocin(9to1) = Cc1c2oc3c(C)ccc(C(=O)[*:1])c3nc-2c(C(=O)[*:2])c(N)c1=O; NMeV = CN[CH](C(=O)O)C(C)C; Sar = CNCC(=O)O
Give the value in µM but do not write µM after it.

In the examples that follow, each entry is paired with its recorded TGI.
{"compound": "Cc1c2oc3c(C)ccc(C(=O)NC4C(=O)NC(C(C)C)C(=O)N5CCCC5C(=O)N(C)CC(=O)N(C)C(C(C)C)C(=O)OC4C)c3nc-2c(C(=O)NC2C(=O)NC(C(C)C)C(=O)N3CCCC3C(=O)N(C)CC(=O)N(C)C(C(C)C)C(=O)OC2C)c(N)c1=O (configuration not stated) (I: TVP[Sar][NMeV] / II: TVP[Sar][NMeV]; ester I:1-I:C, II:1-II:C; linker I:N-II:N via Actinocin(9to1); configuration not given here)", "unit of measure": "µM", "TGI": 0.0317}
{"compound": "CSC(=O)c1sc(SC)[n+](-c2ccccc2)c1O", "unit of measure": "µM", "TGI": 29.8}
{"compound": "C=C1C[C@H](O)[C@H](Br)C(C)(C)[C@@]12CCC(C)=C(Cl)C2", "unit of measure": "µM", "TGI": 1.87}

Let's switch to this compound now.
For this compound ( `CN1CCN(C(=O)COc2ccc(C34CC5CC(CC(C5)C3)C4)cc2)CC1` ), measured TGI is 21.6

###

Tested on: SK-MEL-5 melanoma
Experiment: NCI tumour cell line growth inhibition, 48 h
// Criterion not met strictly below 10 µM in TGI; Criterion met otherwise

{"molecule": "O=C(NC1C=CCC2C(=O)N(c3ccccc3)C(=O)C12)OCc1ccccc1 (stereo unspecified)", "class name": "Criterion met"}
{"molecule": "C=C1c2nc3ccccc3n2C=C(c2ccc(OC)cc2)N1c1ccc(OC)cc1", "class name": "Criterion met"}
{"molecule": "CN(C)CC(O)c1ccc(/C=C/c2ccc(Cl)cc2)cc1 (stereo unspecified)", "class name": "Criterion met"}
{"molecule": "COc1ccc2oc3c(C)cc4c(OC)nnc(OC)c4c3c2c1", "class name": "Criterion met"}
{"molecule": "O=c1cc(-c2ccc3c(c2)OCO3)[nH]c2cc3c(cc12)OCO3", "class name": "Criterion met"}

Input line: Textbook exercise: given the entry `COc1cc(-c2nn(-c3cccc(NC(=O)c4ccccc4)c3)cc2-c2ccncc2)ccc1Cl` , state whether its TGI is greater than or equal to 10 µM.
Output line: Criterion not met

Input line: Kindly determine if TGI recorded for O=C1c2cc3c(cc2CC12Cc1ccc4c(c1C2=O)CCC4)CCCC3 (stereo unspecified) is above or exactly 10 µM.
Output line: Criterion met

Input line: Does TGI meet or surpass 10 µM for `CCCCCCOc1ccc(/C=N/Nc2cc(C)nc3ccc(Cl)cc23)cc1` ?
Output line: Criterion not met

Input line: Test whether the molecule `O=C1NC2(CCN(CCc3ccccc3)CC2)Oc2ccccc21` records TGI of 10 µM or higher.
Output line: Criterion met

Input line: Form field: TGI at least 10 µM? Entry: `Cc1[cH-]c(=O)n(-c2ccccc2)n1.[Au+].[Au].c1ccc([PH+](c2ccccc2)c2ccccc2)cc1.c1ccc([PH+](c2ccccc2)c2ccccc2)cc1`
Output line: Criterion met

Input line: Answer whether TGI of `Cc1ccc2nc(-c3ccccc3)cc(=O)n2c1` is greater than or equal to 10 µM.
Output line: Criterion met

###

Test system: UACC-62 melanoma
Test: NCI tumour cell line growth inhibition, 48 h
property measured: TGI

{"compound": "CN(C)c1ccc(/C=N/NC(=S)Nc2ccccc2)cc1", "TGI": "> 100 µM"}
{"compound": "CO[C@](C(=O)OC[C@H]1[C@@H](COC(C)=O)[C@@H]2O[C@H]1c1cc3c(cc12)OCO3)(c1ccccc1)C(F)(F)F", "TGI": "> 100 µM"}
{"compound": "COc1ccccc1CC(=O)C(O)(C(F)(F)F)C(F)(F)F", "TGI": "> 100 µM"}
{"compound": "COc1c2ccccc2c(OC)c2[nH]c(=O)ccc12", "TGI": "3.33 µM"}
{"compound": "COc1cc(-c2nn(-c3cccc(NC(=O)c4ccccc4)c3)cc2-c2ccncc2)ccc1Cl", "TGI": "> 100 µM"}
{"compound": "CCOC(=O)c1cc(-c2ccc(OC)cc2)c([N+](=O)[O-])n1C", "TGI": "> 10 µM"}
{"compound": "CC1(C)CC(c2c[nH]c3ccccc23)=CC2=Nc3ccccc3C21O (stereo unspecified)", "TGI": "> 100 µM"}
{"compound": "c1ccc(Nc2ncc(-c3ccccc3)o2)cc1", "TGI": "> 25 µM"}
{"compound": "CN(C)C(=S)/N=c1\\ssc(=S)n1C1CCCCC1", "TGI": "34.2 µM"}
{"compound": "CN1CCN(C(=O)COc2ccc(C34CC5CC(CC(C5)C3)C4)cc2)CC1", "TGI": "23.4 µM"}

Entry `Nc1nc2[nH]cc(CCc3ccc(C(=O)N[C@@H](CCC(=O)O)C(=O)O)cc3)c2c(=O)[nH]1` ; TGI = > 100 µM

Reference source for all entries: PubChem BioAssay (NCI)
